assay procedure: Toxicity liver stage against HepG2, at 10uM
Assay type: cell-based
Parameters: test concentration 10 uM, cell line HepG2-A16-CD81EGFP
study conditions: human, HepG2-A16-CD81EGFP cells; read-out: INHIBITION
cytotoxicity at 10 µM overview
attribute measured: cytotoxicity at 10 µM (%)

compound: O=C(CCNS(=O)(=O)c1ccccc1F)NCc1ccoc1
attribute measured: cytotoxicity at 10 µM
value observed: -16.5
--
compound: COc1ccc(-n2c(SCC(=O)O)nnc2-c2cn[nH]c2)cc1
attribute measured: cytotoxicity at 10 µM
value observed: -4.59
--
compound: NC(=O)CC1CCN(C(=O)c2cccn2Cc2cccs2)CC1
attribute measured: cytotoxicity at 10 µM
value observed: -7.19
--
compound: CC(Oc1cc(Cl)cc(Cl)c1)C(=O)NCCOCC(N)=O (configuration not stated)
attribute measured: cytotoxicity at 10 µM
value observed: -5.82
--
compound: CCOc1cccc(CN2CCCC(Nc3ccc(F)cc3)C2)c1O (configuration not stated)
attribute measured: cytotoxicity at 10 µM
value observed: -8.93
--
compound: Cc1nc2cc(CNC(=O)C3CC(=O)N(C4CCCC4)C3)ccc2n1C (configuration not stated)
attribute measured: cytotoxicity at 10 µM
value observed: -2.37
--
compound: O[C@@]1(Cn2cnc(Cl)c2Cl)CCCN2CCCC[C@@H]21
attribute measured: cytotoxicity at 10 µM
value observed: -1.88
--
compound: CN(Cc1ccc(-n2ccnc2)cc1)CC1CCCN1c1cccnn1 (configuration not stated)
attribute measured: cytotoxicity at 10 µM
value observed: -6.21
--
compound: CCOCC1CN(C(=O)c2ccsc2)Cc2nn(C)cc21 (configuration not stated)
attribute measured: cytotoxicity at 10 µM
value observed: 3.39
--
compound: Cc1ccc(C(=O)N2CCN(CCc3ccccc3)CC2)c(=O)[nH]1
attribute measured: cytotoxicity at 10 µM
value observed: -7.1
--
compound: Cc1cc(C(F)(F)F)nc(CNC(=O)CCC2CCCCN2C)n1 (configuration not stated)
attribute measured: cytotoxicity at 10 µM
value observed: -59
--
compound: O=C1CO[C@H]2CN(Cc3ccccc3Br)C[C@@H]2N1
attribute measured: cytotoxicity at 10 µM
value observed: 2.13
--
compound: Cc1nccn1C1CCCN(C(=O)c2cc(O)nc3ccccc23)C1 (configuration not stated)
attribute measured: cytotoxicity at 10 µM
value observed: -6.9
--
compound: CC(NC(=O)CN1C=Nc2ccccc2S1(=O)=O)c1ccccc1 (configuration not stated)
attribute measured: cytotoxicity at 10 µM
value observed: -0.476
--
compound: O=C(Cn1c(=O)n(Cc2ccco2)c2ncccc21)Nc1ccccn1
attribute measured: cytotoxicity at 10 µM
value observed: 0.822
--
compound: COc1ccc(C(=O)N2CCCC(C)C2)cc1F (configuration not stated)
attribute measured: cytotoxicity at 10 µM
value observed: -11.6
--
compound: CCN(CC)Cc1ccc(CNC(=O)C(C)(C)n2cc(Br)cn2)cc1
attribute measured: cytotoxicity at 10 µM
value observed: 33.6
